- EXPERIMENTAL TARGET: LbCas12a (Lachnospiraceae bacterium ND2006, UniProt A0A5S8WF58 1-1228)
- PROCEDURE DETAILS: EMSA
PROPERTY LABEL: Kd

>>> result("AAUUUCUACUAAGUGUAGAUAAAGUGCUCAUCAUUGGAAAACGU (structured_RNA) [LbCas12a crRNA (24-nt T1) rGJK_007]")
"16.4 nM"
